# studyTarget: IL16_3, Q14005
# Sequence (Q14005 1107-1207): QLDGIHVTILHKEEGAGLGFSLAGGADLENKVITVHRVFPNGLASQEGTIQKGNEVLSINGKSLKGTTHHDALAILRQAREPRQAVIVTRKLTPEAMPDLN
# experiment: holdup assay
# Design: key: below the threshold = too weak to quantify, mostly under pKd 3.1 to 4
# condition: plain residues with an end cap or a label only (N-terminal biotin on a linker: ado-ado)
observable: pKd

Please review the following examples before continuing.
>  <binder>
ADEMICITTL [CACNA1D, Q01668]

>  <measValue>
below the threshold

$$$$
>  <binder>
SSSVNVSSNL [CXCR1, P25024]

>  <measValue>
below the threshold

$$$$
>  <binder>
PALKNGQYWV [CSPG4, Q6UVK1]

>  <measValue>
below the threshold

$$$$
>  <binder>
MQILSKPEFI [NPSR1, Q6W5P4]

>  <measValue>
below the threshold

$$$$
>  <binder>
AHGSTRDQSI [KCNB1, Q14721]

>  <measValue>
below the threshold

$$$$

What value of pKd has been recorded for this entry: HYPASPDSWV [CTNND2, Q9UQB3]
below the threshold

Find the recorded pKd belonging to KPDKQEEFYA [SDC3, O75056] and report it.
below the threshold

What pKd value was documented for this binder, IGHEDLETAV [DGKI, O75912] ?
below the threshold
